Reference source: PubChem BioAssay (NCATS)

# TEST DETAILS: Quantitative High-Throughput drug screen in 47 multiple myeloma cell lines against the NCATS MIPE library collection: Delta47_JCRB cell viability assay (AID 1918925; further: nearly all actives have a fitted effect of over 45% in size)
# CONDITION CONTEXT: Delta47 myeloma viability, CellTiter-Glo ATP, 48 h; series mostly up to 45.8 µM
# Text: PI: Beverly A. Mock Ph.D. Laboratory of Cancer Biology and Genetics, Center for Cancer Research, National Cancer Institute, National Institute of Health, Bethesda, Maryland […] 5; Detector; 425V; Luminescence; Viewlux PerkinElmer. […] 1. […] Briefly, the corresponding myeloma cell lines were screened in 1,536-well plates with 500 cells, 5-uL per well for inhibition of cell viability (assessed by measuring ATP levels with CellTiterGlo). […]
Inconclusive results are not listed. The source made the active and inactive calls. The call rests on the fitted dose curve; in most records, active means well fitted cell-killing curve with a large enough effect; inconclusive means small, poorly fitted or top-dose-only effect, or effect the other way; inactive means no such curve, though single readings can be large or run the other way. Non-standard residues stand in square brackets, D forms with d. Residues, ends and D or L forms follow the SMILES beside them. *: point of attachment. Nva = CCC[C@H](N)C(=O)O; Cbz = O=C(OCc1ccccc1)*
Use one of these outcomes when replying: t (active), f (inactive)

Field: example entries. Status: answers known.
| COMPOUND | LABEL |
| --- | --- |
| CCC[C@@H](C=O)NC(=O)[C@H](CC(C)C)NC(=O)[C@H](CC(C)C)NC(=O)OCc1ccccc1 (Cbz-Leu-Leu-[Nva]-aldehyde) | t |
| COc1cc(C(=O)NC2CCN(C)CC2)ccc1Nc1ncc2c(n1)N(C1CCCC1)CCC(=O)N2C(C)C | t |
| O=C(NC1CC1)c1cccc(-c2ccc3c(NC(=O)C4CC4)n[nH]c3c2)c1 | t |

Q: So what was the verdict on COc1cc([C@@H]2c3cc4c(cc3[C@@H](O[C@@H]3O[C@@H]5CO[C@@H](c6cccs6)O[C@@H]5[C@H](O)[C@@H]3O)[C@H]3COC(=O)[C@H]23)OCO4)cc(OC)c1O in this test?
A: t

Q: Recorded test call requested for Nc1ncn([C@@H]2O[C@H](CO)[C@@H](O)[C@@H]2O)c(=O)n1
A: t

Q: How was NS(=O)(=O)OC[C@@H]1C[C@@H](n2ccc3c(N[C@H]4CCc5ccccc54)ncnc32)C[C@H]1O classified in this test?
A: t

Q: Recorded test call requested for Cc1cnn(C)c1C(=O)Nc1cc(Nc2ccc3c(C=Cc4ccccn4)n[nH]c3c2)ccc1F
A: t

Q: Field: outcome | Entry: O=S(=O)(O)CCSSCCS(=O)(=O)O
A: f

---

parasite growth, % of DMSO control values by entry
# TEST DETAILS: qHTS profiling of the MIPE4 collection as inhibitors of Plasmodium falciparum (3D7) proliferation (AID 743344);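 further: scaled between DMSO vehicle wells and 0.29 µM artemisinin as full inhibition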
# CONDITION CONTEXT: P. falciparum 3D7 in erythrocytes, SYBR Green DNA fluorescence, 72 h; at 28.5 µM (top of the series) unless noted

Q: Could you share which parasite growth, % of DMSO control value was measured for COc1cc2ncnc(Nc3cccc(Br)c3)c2cc1OC ?
A: 8.2%

Q: So what's the measured parasite growth, % of DMSO control for this one? CC(C=CC=C(C)C=CC1=C(C)CCCC1(C)C)=CC=CC=C(C)C=CC=C(C)C=CC1=C(C)CCCC1(C)C
A: 11.9%

Q: Item under review: COc1cccc2c1C(=O)c1c(O)c3c(c(O)c1C2=O)C[C@@](O)(C(C)=O)C[C@H]3O[C@H]1C[C@H](N)[C@H](O)[C@H](C)O1 . Reported parasite growth, % of DMSO control?
A: 13.5%

Q: Suppose we examine the molecule c1ccc2c(Oc3nc(Nc4ccc(N5CCOCC5)cc4)c4ncn(C5CCCCC5)c4n3)cccc2c1 ; what parasite growth, % of DMSO control value has been reported?
A: 6.5%
